# Tested on: Human breast cancer cell line ZR-75-1
# assay_procedure: Caspase cascade activation assay (N-(Ac-DEVD)-N'-ethoxycarbonyl-R110 fluorogenic substrate) in ZR-75-1 cells
# Type: cell-based
# setup_conditions: Homo sapiens; caspase cascade activation potency; ZR-75-1 cells, 24 h incubation
# log10(EC50) listing for each entry below
measurement_kind: log10(EC50) (log10 of the value in nM)

- COc1cc(-c2c(C#N)c(=N)oc3cc(N)ccc23)cc(Br)c1OC: 3.44
- Cn1ccc2c3oc(=O)c(C#N)c(-c4cccc(Br)c4)c3ccc21: 1.23
- COc1cc(-c2c(C#N)c(N)nc3c2CCc2ccccc2-3)cc(Br)c1OC: 2.75
- COc1cccc(-c2c(C#N)c(=O)oc3cc(OC)ccc23)c1: 1.64
- COc1cc(OC)cc(-c2c(C#N)c(=O)oc3cc(N(C)C)ccc23)c1: 2.63
- COc1cccc(C2=c3ccc4c(c3OC(=O)C2C#N)C=CN=4)c1 (stereo not shown): 2.05
- COc1cc(-c2cc3c(c4c2=C(C#N)C(=O)O4)OC(C)(C)CC=3)cc(Br)c1OC: 3.00
- Cn1ccc2c3oc(=O)c(C#N)c(-c4cccc([N+](=O)[O-])c4)c3ccc21: 1.34
- COc1cc(-c2c(C#N)c(=O)oc3cc(N(C)C)ccc23)cc(Br)c1OC: 2.45
- COc1cc(-c2c(C#N)c(=O)oc3cc(N)ccc23)cc(Br)c1OC: 2.51
- COc1ccc(OC)c(C2=c3ccc4c(c3OC(=O)C2C#N)C=CN=4)c1 (stereo not shown): 2.61
- COc1cc(OC)cc(C2=c3ccc4c(c3OC(=O)C2C#N)C=CN=4)c1 (stereo not shown): 2.24
- COc1cc(OC)cc(-c2c(C#N)c(=O)oc3cc(N)ccc23)c1: 2.60
- CNc1ccc2c(-c3cc(Br)c(OC)c(OC)c3)c(C#N)c(=O)oc2c1: 2.55
- COc1cc(-c2c(C#N)c(=O)oc3c2ccc2c3ccn2C)cc2c1OCO2: 1.38
- COc1cc(OC)cc(-c2c(C#N)c(=O)oc3c2ccc2c3ccn2C)c1: 1.30
- COc1cccc(-c2c(C#N)c(=O)oc3c2ccc2c3ccn2C)c1: 1.34
- COc1ccc2c(-c3cc(Br)c(OC)c(OC)c3)c(C#N)c(=O)oc2c1: 1.99
- COc1cc(OC)cc(-c2c(C#N)c(=O)oc3cc(OC)ccc23)c1: 1.04

----------
# log10 of EC50 listing for each entry below
# Tested on: Human breast cancer cell line T-47D
# assay_procedure: Caspase cascade activation assay (N-(Ac-DEVD)-N'-ethoxycarbonyl-R110 fluorogenic substrate) in T-47D cells
# Type: cell-based
# setup_conditions: Homo sapiens, T47D; caspase cascade activation potency; T-47D cells, 24 h incubation
measurement_kind: log10 of EC50 (log10 of the value in nM)

- COc1cc(OC)cc(-c2c(C#N)c(=O)oc3cc(OC)ccc23)c1: 1.64
- COc1cc(-c2c(C#N)c(=O)oc3cc(Cl)ccc23)cc(Br)c1OC: 3.47
- COc1ccc2c(-c3cc(Br)c(OC)c(OC)c3)c(C#N)c(=O)oc2c1: 2.41
- COc1cccc(-c2c(C#N)c(=O)oc3c2ccc2c3ccn2C)c1: 1.74
- COc1cc(OC)cc(-c2c(C#N)c(=O)oc3cc(N(C)C)ccc23)c1: 2.66
- COc1cc(-c2c(C#N)c(=O)oc3cc(N(C)C)ccc23)cc(Br)c1OC: 2.74
- COc1cc(-c2c(C#N)c(=O)oc3cc(N)ccc23)cc(Br)c1OC: 3.17
- COc1cccc(-c2c(C#N)c(=O)oc3cc(OC)ccc23)c1: 2.00

----------
# System: Human breast cancer cell line ZR-75-1
# assay_procedure: Caspase cascade activation assay (N-(Ac-DEVD)-N'-ethoxycarbonyl-R110 fluorogenic substrate) in ZR-75-1 cells
# Assay type: cell-based
# setup_conditions: caspase cascade activation potency; ZR-75-1 cells, 24 h incubation
# Procedure: Human breast cancer cell lines T-47D and ZR-75-1 were grown according to media component mixtures designated by American Type Culture Collection +10% FCS (Invitrogen Corporation), in a 5% CO2 −95% humidity incubator at 37° C. […] After the 3 h incubation, the samples were read for fluorescence as above (T=3 h). The Relative Fluorescence Unit values (RFU) were used to calculate the sample readings as follows: RFU(T=3 h)−Control RFU(T=0)=Net RFU(T=3 h) […]
# EC50 listing for each entry below
measurement_kind: EC50 (nM)

* COc1cccc(-c2c(C#N)c(=O)[nH]c3cc(Cl)ccc23)c1 [Example 8] | 878
* COc1ccc2c(-c3cc(Br)c(OC)c(OC)c3)c(C#N)c(=O)[nH]c2c1 [Example 9] | 2050
* N#Cc1c(-c2ccccc2)c2ccccc2[nH]c1=O [Example 6, 3-Cyano-4-phenyl-quinolin-1H-2-one] | 882

----------
# EC50 listing for each entry below
# Tested on: Human breast cancer cell line T-47D
# assay_procedure: Caspase cascade activation assay (N-(Ac-DEVD)-N'-ethoxycarbonyl-R110 fluorogenic substrate) in T-47D cells
# Type: cell-based
# setup_conditions: Homo sapiens, T47D; caspase cascade activation potency; T-47D cells, 24 h incubation
measurement_kind: EC50

* COc1cc(OC)cc(-c2c(C#N)c(=O)oc3c2ccc2c3ccn2C)c1 [Example 39] | > 100 nM
* Cn1ccc2c3oc(=O)c(C#N)c(-c4cccc([N+](=O)[O-])c4)c3ccc21 [Example 38] | > 100 nM
* COc1cccc(C2=c3ccc4c(c3OC(=O)C2C#N)C=CN=4)c1 (stereo not shown) [Example 5] | 200 nM
* COc1cc(-c2c(C#N)c(=N)oc3cc(N(C)C)ccc23)cc(Br)c1OC [Example 31] | 2500 nM

----------
# EC50 listing for each entry below
# Test system: Human breast cancer cell line T-47D
# assay_procedure: Caspase cascade activation assay (N-(Ac-DEVD)-N'-ethoxycarbonyl-R110 fluorogenic substrate) in T-47D cells
# Format: cell-based
# setup_conditions: caspase cascade activation potency; T-47D cells, 24 h incubation
measurement_kind: EC50 (nM)

• COc1cccc(-c2c(C#N)c(=O)[nH]c3cc(Cl)ccc23)c1 = 1170
• COc1ccc2c(-c3cc(Br)c(OC)c(OC)c3)c(C#N)c(=O)[nH]c2c1 = 4410
• N#Cc1c(-c2ccccc2)c2ccccc2[nH]c1=O = 4800

----------
# Tested on: Human breast cancer cell line T-47D
# assay_procedure: Caspase cascade activation assay (N-(Ac-DEVD)-N'-ethoxycarbonyl-R110 fluorogenic substrate) in T-47D cells
# Assay type: cell-based
# setup_conditions: Homo sapiens, T47D; caspase cascade activation potency; T-47D cells, 24 h incubation
measurement_kind: EC50 (nM)

- COc1cc(OC)cc(C2=c3ccc4c(c3OC(=O)C2C#N)C=CN=4)c1 (centres unmarked): 106
- Cn1ccc2c3oc(=O)c(C#N)c(-c4cccc(Br)c4)c3ccc21: 56
- COc1cc(-c2c(C#N)c(N)nc3c2CCc2ccccc2-3)cc(Br)c1OC: 4060
- CNc1ccc2c(-c3cc(Br)c(OC)c(OC)c3)c(C#N)c(=O)oc2c1: 1090
- COc1ccc(OC)c(C2=c3ccc4c(c3OC(=O)C2C#N)C=CN=4)c1 (centres unmarked): 585
